biological target: Cholinesterase (Equus caballus)
Sequence (P81908 whole entry): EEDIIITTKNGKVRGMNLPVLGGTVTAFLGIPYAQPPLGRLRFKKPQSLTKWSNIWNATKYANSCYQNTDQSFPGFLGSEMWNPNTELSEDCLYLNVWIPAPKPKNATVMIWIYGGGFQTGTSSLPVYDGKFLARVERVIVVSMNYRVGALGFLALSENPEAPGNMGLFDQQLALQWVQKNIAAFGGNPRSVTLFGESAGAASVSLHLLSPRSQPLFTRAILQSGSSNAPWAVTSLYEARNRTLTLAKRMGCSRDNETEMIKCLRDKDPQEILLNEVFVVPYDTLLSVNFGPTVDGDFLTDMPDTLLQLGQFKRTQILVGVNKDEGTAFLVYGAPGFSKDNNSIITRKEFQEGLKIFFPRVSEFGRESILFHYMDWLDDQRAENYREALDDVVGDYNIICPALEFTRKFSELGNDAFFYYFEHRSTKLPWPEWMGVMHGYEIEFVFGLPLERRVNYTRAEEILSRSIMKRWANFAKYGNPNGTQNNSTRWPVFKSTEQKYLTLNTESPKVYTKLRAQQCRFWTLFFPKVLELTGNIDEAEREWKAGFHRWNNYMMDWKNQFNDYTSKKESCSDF
pIC50: −log10 of the molar value.
Given measured pIC50, output fulfilled if it is greater than or equal to 5 and not fulfilled if not.

These recorded examples may help you get a feel for the data.
COc1ccc2c(c1OC)CO/C(=C\c1cc[n+](Cc3ccccc3)cc1)C2=O : fulfilled
COc1ccc2c(c1OC)CO/C(=C\c1cc[n+](Cc3cccc([N+](=O)[O-])c3)cc1)C2=O : not fulfilled
COc1ccc2c(c1OC)CO/C(=C\c1cc[n+](Cc3ccc(Cl)cc3)cc1)C2=O : fulfilled
COc1ccc2c(c1OC)CO/C(=C\c1cc[n+](Cc3ccccc3F)cc1)C2=O : fulfilled
COc1ccc2c(c1OC)CO/C(=C\c1cc[n+](Cc3ccccc3Cl)cc1)C2=O : fulfilled

Qu. Check the entry COc1ccc2c(c1OC)CO/C(=C\c1cc[n+](Cc3ccc(F)cc3)cc1)C2=O : does pIC50 equal or exceed 5?
Ans. fulfilled

====

molecular target: Cholinesterase (Equus caballus)
REPORTED ENDPOINT: IC50 (µM)
I only need the number, in µM, no unit after it.

Worked set:
COc1ccc2c(c1OC)CO/C(=C\c1cc[n+](Cc3ccccc3[N+](=O)[O-])cc1)C2=O : 20.9
COc1ccc(C[n+]2ccc(/C=C3\OCc4c(ccc(OC)c4OC)C3=O)cc2)cc1 : 4.33

# ---- query compound ----
Qu. Reported IC50 for Cholinesterase (Equus caballus), given COc1cccc(C[n+]2ccc(/C=C3\OCc4c(ccc(OC)c4OC)C3=O)cc2)c1 ?
Ans. 3.06

====

Item-by-item account of Ratio IC50
assay: Selectivity index, ratio of IC50 for equine serum BuChE to IC50 for electric eel AChE
Please respond with just the number, no unit label.

See these solved cases before continuing.
COc1ccc2c(c1OC)CO/C(=C\c1cc[n+](Cc3cccc(Cl)c3)cc1)C2=O : 142
COc1ccc2c(c1OC)CO/C(=C\c1cc[n+](Cc3ccc(Cl)cc3)cc1)C2=O : 5.5
COc1ccc2c(c1OC)CO/C(=C\c1cc[n+](Cc3ccccc3)cc1)C2=O : 153
COc1ccc2c(c1OC)CO/C(=C\c1cc[n+](Cc3cccc([N+](=O)[O-])c3)cc1)C2=O : 64

Now let's try a different one.
Qu. // lookup Ratio IC50 for COc1ccc2c(c1OC)CO/C(=C\c1cc[n+](Cc3ccccc3F)cc1)C2=O
Ans. 209

====

experiment: Lipophilicity, log P of the compound by UV-metric/potentiometric method; format: physicochemical; settings: octanol/water
The entries below are paired with their reported logP.
Response field accepts a number only; no unit should be typed.

Recorded results for 2 compounds are shown here.
COc1ccc2c(c1OC)CO/C(=C\c1cc[n+](Cc3ccc(F)cc3)cc1)C2=O : 2.84
COc1ccc2c(c1OC)CO/C(=C\c1cc[n+](Cc3ccccc3Cl)cc1)C2=O : 3.2

Qu. May I ask what logP has been recorded for COc1ccc2c(c1OC)CO/C(=C\c1cc[n+](Cc3ccccc3)cc1)C2=O ?
Ans. 2.53

====

experiment: Dissociation constant, pKa of the compound by UV-metric/potentiometric method; assay type: physicochemical
REPORTED ENDPOINT: pKa

Below, each entry is followed by its recorded pKa result.
COc1ccc2c(c1OC)CO/C(=C\c1cc[n+](Cc3ccccc3)cc1)C2=O : 8.68
COc1ccc2c(c1OC)CO/C(=C\c1cc[n+](Cc3ccc(F)cc3)cc1)C2=O : 8.79

Qu. If you can, please state the reported pKa value of COc1ccc2c(c1OC)CO/C(=C\c1cc[n+](Cc3ccccc3Cl)cc1)C2=O .
Ans. 8.62

====

test: Selectivity index, ratio of IC50 for equine serum BuChE to IC50 for electric eel AChE
Reported Ratio IC50 values for a set of compounds
Respond using a number only.

COc1ccc2c(c1OC)CO/C(=C\c1cc[n+](Cc3cccc(F)c3)cc1)C2=O : 359
COc1ccccc1C[n+]1ccc(/C=C2\OCc3c(ccc(OC)c3OC)C2=O)cc1 : 13

Qu. Dear colleague, I am looking for the recorded Ratio IC50 of the following compound: COc1ccc2c(c1OC)CO/C(=C\c1cc[n+](Cc3ccccc3[N+](=O)[O-])cc1)C2=O
Ans. 41.6

Qu. For the compound shown here, COc1cccc(C[n+]2ccc(/C=C3\OCc4c(ccc(OC)c4OC)C3=O)cc2)c1 , give the reported Ratio IC50.
Ans. 7

Qu. May I ask what Ratio IC50 has been recorded for COc1ccc2c(c1OC)CO/C(=C\c1cc[n+](Cc3ccc(F)cc3)cc1)C2=O ?
Ans. 232

Qu. I have this compound here, COc1ccc(C[n+]2ccc(/C=C3\OCc4c(ccc(OC)c4OC)C3=O)cc2)cc1 , and I need its recorded Ratio IC50.
Ans. 3.6

Qu. Given COc1ccc2c(c1OC)CO/C(=C\c1cc[n+](Cc3ccccc3Cl)cc1)C2=O , state its recorded Ratio IC50.
Ans. 229

====

Let's go through some IC50 measurements on Cholinesterase (Equus caballus) together.
Provide only the numeric value, understood in µM.

Here is how some compounds turned out for IC50.
COc1ccc2c(c1OC)CO/C(=C\c1cc[n+](Cc3cccc(Cl)c3)cc1)C2=O : 9.92
COc1ccc2c(c1OC)CO/C(=C\c1cc[n+](Cc3cccc(F)c3)cc1)C2=O : 9.44

Now, please, on to the next compound.
Qu. Would you kindly share the measured IC50 for COc1ccccc1C[n+]1ccc(/C=C2\OCc3c(ccc(OC)c3OC)C2=O)cc1 ?
Ans. 8.79
